Listing of entries alongside the reported pEC50.
Test system: HIV-1 resistant mutant K103N/Y181C in C8166 LTRluc cells
method.notes: C8166 HIV-1 luciferase assay (EC50), resistant mutant
Format: cell-based
run.conditions: Human immunodeficiency virus 1, C8166, read-out: EC50 K103N/Y181C
pEC50: −log10 of the molar value.

Solved cases (7 shown):
• Cc1nnc(SCC(=O)Nc2ccccc2Cl)n1-c1ccc(C(C)(C)C)cc1Cl = 7.00 to 7.30
• CC(C)(C)c1ccc(-n2nnnc2SCC(=O)Nc2ccncc2Cl)c(Cl)c1 = > 7.30
• CCN(CC)c1ccc(-n2nnnc2SCC(=O)Nc2ccccc2Cl)c(Cl)c1 = < 7.00
• CC(C)(C)c1ccc(-n2nnnc2SCC(=O)Nc2ccc(N3CCCCC3)cc2Cl)c(Cl)c1 = < 7.00
• Cc1ccc(-n2nnnc2SCC(=O)Nc2ccc(S(C)(=O)=O)cc2Cl)c(Cl)c1 = < 7.00
• Cc1ccc(-n2nnnc2SCC(=O)Nc2ccc(-c3ccccc3)cc2C)c(Cl)c1 = < 7.00
• CC(C)(C)c1ccc(-n2nnnc2SCC(=O)Nc2ccc(N3CCNCC3)cc2Cl)c(Cl)c1 = < 7.00

Proceeding to the next molecule to report its pEC50.
Looking up "CC(C)(C)c1ccc(-n2nnnc2SCC(=O)Nc2ccc(S(N)(=O)=O)cc2Cl)c(Cl)c1" , I found its pEC50 recorded as > 7.30

###

Listing of entries alongside the reported pIC50.
assay.target: HIV-1 RT resistant mutant K103N/Y181C (Human immunodeficiency virus type 1 group M subtype B, UniProt P04585, K690N/Y768C)
Construct: The reverse transcriptase (RT) enzyme assay has been adapted to a 96-well microtiter plate format
method.notes: Reverse transcriptase (RT) enzymatic assay (IC50), PicoGreen fluorescence, resistant mutant
Assay type: biochemical
pIC50: −log10 of the molar value.

• OC(CSc1nnnn1-c1cccc2ccccc12)Cc1ccccc1Cl (stereo not drawn) = < 7.00

Looking up "COc1ccc(NC(=O)CSc2nnnn2-c2cccc3ccccc23)c(Cl)c1" , I found its pIC50 recorded as < 7.00

Looking up "N#Cc1ccc(NC(=O)CSc2nnnn2-c2cccc3ccccc23)c(Cl)c1" , I found its pIC50 recorded as < 7.00

###

Listing of entries alongside the reported pIC50.
assay.target: HIV-1 RT enzyme (wild type) (Human immunodeficiency virus type 1 group M subtype B)
Construct: The reverse transcriptase (RT) enzyme assay has been adapted to a 96-well microtiter plate format
method.notes: Reverse transcriptase (RT) enzymatic assay (IC50), PicoGreen fluorescence, wild type
Type: biochemical
run.conditions: RT enzymatic assay, wild type; read-out: IC50 WT
pIC50: −log10 of the molar value.

Looking up "CC(C)(C)c1ccc(-n2nnnc2SCC(=O)Nc2ccc(N)cc2Cl)c(Cl)c1" , I found its pIC50 recorded as > 7.30

Looking up "NS(=O)(=O)c1ccccc1NC(=O)CSc1nnnn1-c1cccc2ccccc12" , I found its pIC50 recorded as < 7.00

Looking up "Cc1ccc(C)c(NC(=O)CSc2nnnn2-c2cccc3ccccc23)c1" , I found its pIC50 recorded as < 7.00

Looking up "O=C(CSc1nnnn1-c1cccc2ccccc12)Nc1ccc(-c2ccccc2)cc1Cl" , I found its pIC50 recorded as > 7.30

Looking up "O=C(CSc1nnnn1-c1cccc2ccccc12)Nc1c(Cl)cccc1Cl" , I found its pIC50 recorded as < 7.00

Looking up "Cc1cccc(NC(=O)CSc2nnnn2-c2cccc3ccccc23)c1C" , I found its pIC50 recorded as < 7.00

Looking up "O=[N+]([O-])c1ccccc1NCCCSc1nnnn1-c1cccc2ccccc12" , I found its pIC50 recorded as < 7.00

Looking up "O=C(NCCSc1nnnn1-c1cccc2ccccc12)Nc1ccccc1[N+](=O)[O-]" , I found its pIC50 recorded as < 7.00

Looking up "COC(=O)c1ccccc1NC(=O)CSc1nnnn1-c1cccc2ccccc12" , I found its pIC50 recorded as < 7.00

Looking up "Cc1nnc(SCC(=O)Nc2ccc(S(C)(=O)=O)cc2Cl)n1-c1ccc(C(C)(C)C)cc1Cl" , I found its pIC50 recorded as > 7.30

Looking up "O=C(OCCSc1nnnn1-c1cccc2ccccc12)c1ccccc1[N+](=O)[O-]" , I found its pIC50 recorded as < 7.00

Looking up "O=C(CSc1nnnn1Cc1ccc2ccccc2c1)Nc1ccccc1[N+](=O)[O-]" , I found its pIC50 recorded as < 7.00
